# Test details: Cytotoxicity against mouse WEHI13 cells after 72 hrs by MTT assay
# Assay type: cell-based
Binary label based on CC50 at 72 h with cut-off 3 µM: below gives Y, not below gives N.

> print(dat)
                                   compound  group
1  Cc1c(CN2CCCC2)cc(-c2ccc(Cl)cc2)n1Nc1ccnc2cc(Cl)ccc12      Y
2  CCN(CC)CCCC(C)Nc1ccnc2cc(Cl)ccc12 (stereo not given) [CHLOROQUINE]      N
3  Cc1c(CN2CCCC2)cc(-c2ccc(F)cc2)n1Nc1ccnc2cc(Cl)ccc12      Y
4  Cc1ccc(-c2cc(CN3CCCC3)c(C)n2Nc2ccnc3cc(Cl)ccc23)cc1      N
5  CCN(CC)Cc1cc(-c2ccc(Cl)cc2)n(Nc2ccnc3cc(Cl)ccc23)c1C      Y
6  Cc1c(CN2CCCC2)cc(-c2ccccc2)n1Nc1ccnc2cc(Cl)ccc12      N
7  CCN(CC)Cc1cc(-c2ccc(C)cc2)n(Nc2ccnc3cc(Cl)ccc23)c1C      N
8  Cc1c(CN2CCCC2)cc(-c2ccc(C(F)(F)F)cc2)n1Nc1ccnc2cc(Cl)ccc12      Y
9  CCN(CC)Cc1cc(-c2ccccc2)n(Nc2ccnc3cc(Cl)ccc23)c1C      N

Cited source: ChEMBL document CHEMBL1221400
